The origin of these recorded values is the Human Domainome abundance scans (Beltran et al. 2025).

B1: SH3 and PX domain-containing protein 2B, residues 155 to 209; numbered along this chain, A1X283 (parent)
chain: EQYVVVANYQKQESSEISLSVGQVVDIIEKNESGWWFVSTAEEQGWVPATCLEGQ

Variants of: B1
Experiment: abundance fitness (aPCA) (normalised: wild type 0, dead -1); higher = more abundant; growth selection in yeast, the domain comes from the species named
Conditions: Homo sapiens
Item-by-item account of abundance fitness
Readout kind: abundance fitness

| Residue change | Endpoint value |
| --- | --- |
| S20T | -0.055 |
| I28D | -0.451 |
| V38I | -0.319 |
| S33Q | 0.074 |
| E16Q | -0.008 |
| W46Y | -0.051 |
| E13C | -0.19 |
| G45I | -0.643 |
| C51H | -0.322 |
| K11E | -0.183 |
| W36R | -0.462 |
